- System: MvaT
- Protocol Details: PBM 8-mer E-score (mean of HK and ME arrays) (E-score (dimensionless, -0.5 to 0.5)); higher = stronger relative binding preference
The full ranking holds about 33,000 sequences; the median of “E-score (dimensionless, -0.5 to 0.5)” is about -0.058, and the highest 2% start at about 0.35. The sample holds the highest values, similar sequences and a random draw of the others, so the mix is not that of the screen.
Property Measured: PBM 8-mer E-score
Reply with just the number.

The examples below pair each entry with its known result.
1) AAAGTAAA: 0.306
2) ATTATATC: 0.444
3) ATAGTAAC: 0.271
4) AAGACATG: 0.0346
5) CTTATACA: 0.229
6) ATTAAAAT: 0.29
7) CGTTCCAA: 0.0493
8) GTATAATA: 0.416
9) GGACCAAA: -0.139
10) CTATAATA: 0.42

Prompt line: Recorded PBM 8-mer E-score for CTCTAATA , please?
Response line: 0.364

Prompt line: Recorded PBM 8-mer E-score for GATTAACA , please?
Response line: 0.278

Prompt line: Recorded PBM 8-mer E-score for CCATAATA , please?
Response line: 0.287

Prompt line: Recorded PBM 8-mer E-score for AGGCATAA , please?
Response line: -0.0265

Prompt line: Recorded PBM 8-mer E-score for AATTAAAA , please?
Response line: 0.373

Prompt line: Recorded PBM 8-mer E-score for ATTATACA , please?
Response line: 0.388

Prompt line: Recorded PBM 8-mer E-score for CTGTAATA , please?
Response line: 0.36

Prompt line: Recorded PBM 8-mer E-score for ATTATATA , please?
Response line: 0.47

Prompt line: Recorded PBM 8-mer E-score for ATGTCAAC , please?
Response line: 0.0323

Prompt line: Recorded PBM 8-mer E-score for GTCTAATA , please?
Response line: 0.269

Prompt line: Recorded PBM 8-mer E-score for ATAGTAAA , please?
Response line: 0.327

Prompt line: Recorded PBM 8-mer E-score for AAAGTAAT , please?
Response line: 0.373

Each recorded value in this set is attributed to the supplement of paper PMC4466236.
